Reference source: patent US20230048132A1

Tested on: PRXF 22Rv1
Assay: 2D cell proliferation assay (CellTiter-Blue)
Type: cell-based
Settings: Homo sapiens, 72 h, three days of treatment, read-out: abs. IC50
RECORDED METRIC: IC50 (nM)

A = O=C1NCC[C@@]12Cc1cnc(Nc3ccc(N4CCNCC4)cc3F)nc1N(C1CCCC1)C2=O [Example D146]
B = CC(C)N1CCN(c2ccc(Nc3ncc4c(n3)N(C3CCCC3)C(=O)[C@]3(CCNC3=O)C4)nc2)CC1 [Example D154]
C = CN(C)[C@H]1CCN(c2ccc(Nc3ncc4c(n3)N(C3CCCC3)C(=O)[C@]3(CCNC3=O)C4)nc2)C1 [Example D178]
D = CN(C)CCOc1ccc(Nc2ncc3c(n2)N(C2CCCC2)C(=O)[C@]2(CCNC2=O)C3)cc1 [Example D179]
Ascending by IC50, please. Your answer should be the labels, listed in the requested order.
D, A, C, B

---

System: UXF EFE-184
Assay: 2D cell proliferation assay (CellTiter-Blue)
Type: cell-based
Details: Homo sapiens, 72 h, three days of treatment, read-out: abs. IC50
Listed here are compounds together with their documented IC50.
Just the number in µM, nothing appended.

Here's what some known entries look like.
1. CN(C)[C@H]1CCN(c2ccc(Nc3ncc4c(n3)N(C3CCCC3)C(=O)[C@]3(CCNC3=O)C4)nc2)C1 [Example D178] ... 22.6
2. O=C1NCC[C@@]12Cc1cnc(Nc3ccc(N4CCNCC4)cc3F)nc1N(C1CCCC1)C2=O [Example D146] ... 2.08
3. CC(C)N1CCN(c2ccc(Nc3ncc4c(n3)N(C3CCCC3)C(=O)[C@]3(CCNC3=O)C4)nc2)CC1 [Example D154] ... 34.6

Now for another entry.
Look up IC50: CN(C)CCOc1ccc(Nc2ncc3c(n2)N(C2CCCC2)C(=O)[C@]2(CCNC2=O)C3)cc1 [Example D179]
0.244

---

Target: CDK9-CYCLINT1 (Homo sapiens)
Construct: purchased Carna
Sequence (P50750 whole entry): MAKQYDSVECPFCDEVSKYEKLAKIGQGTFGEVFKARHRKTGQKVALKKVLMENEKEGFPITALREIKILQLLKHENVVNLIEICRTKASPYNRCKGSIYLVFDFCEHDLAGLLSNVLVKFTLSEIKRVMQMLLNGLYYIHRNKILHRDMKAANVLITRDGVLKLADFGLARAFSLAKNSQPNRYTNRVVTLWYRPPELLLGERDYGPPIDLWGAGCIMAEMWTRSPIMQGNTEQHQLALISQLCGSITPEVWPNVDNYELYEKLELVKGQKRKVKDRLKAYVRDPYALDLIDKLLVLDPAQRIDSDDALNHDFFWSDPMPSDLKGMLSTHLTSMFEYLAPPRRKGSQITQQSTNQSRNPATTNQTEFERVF
Sequence (O60563 whole entry partner): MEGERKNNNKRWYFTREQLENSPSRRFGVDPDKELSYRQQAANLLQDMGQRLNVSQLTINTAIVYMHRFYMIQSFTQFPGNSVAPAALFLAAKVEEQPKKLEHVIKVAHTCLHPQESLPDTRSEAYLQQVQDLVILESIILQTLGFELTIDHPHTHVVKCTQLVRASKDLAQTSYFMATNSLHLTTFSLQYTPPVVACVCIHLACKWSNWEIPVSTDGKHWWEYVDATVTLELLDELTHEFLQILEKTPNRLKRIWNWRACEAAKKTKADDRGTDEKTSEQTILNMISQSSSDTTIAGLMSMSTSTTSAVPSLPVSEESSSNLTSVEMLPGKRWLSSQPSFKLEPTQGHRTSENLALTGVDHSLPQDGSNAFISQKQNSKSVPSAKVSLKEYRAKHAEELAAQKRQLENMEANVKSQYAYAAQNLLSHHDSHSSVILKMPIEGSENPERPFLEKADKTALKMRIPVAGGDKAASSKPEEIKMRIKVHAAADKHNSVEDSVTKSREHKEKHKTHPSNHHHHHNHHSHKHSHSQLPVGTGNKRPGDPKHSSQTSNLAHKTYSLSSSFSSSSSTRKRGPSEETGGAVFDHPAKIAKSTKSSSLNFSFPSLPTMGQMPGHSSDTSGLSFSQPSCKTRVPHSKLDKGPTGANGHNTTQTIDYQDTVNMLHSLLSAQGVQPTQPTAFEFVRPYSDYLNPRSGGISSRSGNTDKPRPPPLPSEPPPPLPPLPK
Test: CDK inhibition assay (microfluidic LabChip, IC50 format)
Assay type: biochemical
Settings: Table 4b, lower part; read-out: CDK9 CyclinT1 IC50
pIC50: −log10 of the molar value.
RECORDED METRIC: pIC50

1. CCN1CCN(Cc2ccc(Nc3ncc4c(n3)N(C35CC(C3)C5)C(=O)[C@]3(CCNC3=O)C4)nc2)CC1 ... 4.66

A = CC(C)N1CCC(Nc2ncc3c(n2)N(C2CCCC2)C(=O)[C@]2(CCNC2=O)C3)CC1
B = CC(C)N1CCN(c2ccc(Nc3ncc4c(n3)N(C35CC(C3)C5)C(=O)[C@]3(CCNC3=O)C4)cc2)CC1
Higher pIC50: A or B ? Returns: label corresponding to the selected item.
A
(A: 7.69, B: 7.22)

a = O=C1NCC[C@@]12Cc1cnc(Nc3ccc(N4CCC(N5CCOCC5)CC4)cc3)nc1N(C1CCCC1)C2=O
b = CN1CCN(c2ccc(Nc3ncc4c(n3)N(C35CC(C3)C5)C(=O)[C@]3(CCNC3=O)C4)cc2F)CC1
Higher pIC50: a or b ? Returns: label corresponding to the selected item.
a

---

Tested on: PRXF DU-145
Assay: 2D cell proliferation assay (CellTiter-Blue)
Type: cell-based
Details: Homo sapiens, 72 h, three days of treatment, read-out: abs. IC50
pIC50: −log10 of the molar value.
RECORDED METRIC: pIC50

1) CN(C)[C@H]1CCN(c2ccc(Nc3ncc4c(n3)N(C3CCCC3)C(=O)[C@]3(CCNC3=O)C4)nc2)C1 ... 4.72

1 = O=C1NCC[C@@]12Cc1cnc(Nc3ccc(N4CCNCC4)cc3F)nc1N(C1CCCC1)C2=O
2 = CN(C)CCOc1ccc(Nc2ncc3c(n2)N(C2CCCC2)C(=O)[C@]2(CCNC2=O)C3)cc1
3 = CC(C)N1CCN(c2ccc(Nc3ncc4c(n3)N(C3CCCC3)C(=O)[C@]3(CCNC3=O)C4)nc2)CC1
Sort by pIC50, descending. Your answer should be the labels, listed in the requested order.
2, 1, 3
